# Target under test: h-P2X7 (Homo sapiens, UniProt Q99572)
# Sequence (Q99572 whole entry): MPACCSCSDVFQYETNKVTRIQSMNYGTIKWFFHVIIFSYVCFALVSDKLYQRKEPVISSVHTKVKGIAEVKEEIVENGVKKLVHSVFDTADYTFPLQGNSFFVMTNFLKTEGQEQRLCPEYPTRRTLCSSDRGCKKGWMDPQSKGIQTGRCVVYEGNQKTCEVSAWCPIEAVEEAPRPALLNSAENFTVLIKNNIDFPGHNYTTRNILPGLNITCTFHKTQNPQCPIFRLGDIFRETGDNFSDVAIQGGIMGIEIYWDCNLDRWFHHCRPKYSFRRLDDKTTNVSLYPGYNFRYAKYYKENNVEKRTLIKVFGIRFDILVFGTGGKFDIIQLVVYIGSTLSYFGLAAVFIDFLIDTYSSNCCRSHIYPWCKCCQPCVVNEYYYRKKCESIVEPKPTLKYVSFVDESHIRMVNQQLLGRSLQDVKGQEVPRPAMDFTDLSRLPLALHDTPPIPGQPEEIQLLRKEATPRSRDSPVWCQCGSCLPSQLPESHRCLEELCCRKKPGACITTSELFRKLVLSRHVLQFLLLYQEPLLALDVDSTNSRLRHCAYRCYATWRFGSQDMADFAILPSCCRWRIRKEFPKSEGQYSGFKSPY
# Experiment summary: BzATP induced Ethidium Bromide dye-uptake assay (pore formation)
# Format: cell-based
# Set-up: expressed in transfected cells; host or cells: human 1321N1 astrocytoma cells
# Condition description: serial dilution curves; read-out: IC50 ± SEM, BzATP induced Ethidium Bromide dye uptake
pIC50: −log10 of the molar value.
Result type: pIC50

[I] O=C(NC(=S)Nc1cccc2cccnc12)C12CC3CC(CC(C3)C1)C2
[II] O=C(NC(=S)Nc1cccnc1Cl)C12CC3CC(CC(C3)C1)C2
Query: Identify the entry with the smaller pIC50: I or II . I would appreciate it if you answered with the label of your choice.
Reply: II
(II: 6.51, I: 6.87)

Hello, the source for this data is patent US20230141034A1, in case you need it.
